# target system: NHERF2_2, Q15599
# Sequence (Q15599 142-238): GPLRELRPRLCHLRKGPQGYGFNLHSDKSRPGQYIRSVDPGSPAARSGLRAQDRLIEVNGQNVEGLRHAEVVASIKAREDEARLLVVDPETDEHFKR
# protocol: holdup assay
# Design: key: below the threshold = too weak to quantify, mostly under pKd 3.1 to 4
# protocol conditions: plain residues with an end cap or a label only (N-terminal biotin on a linker: ado-ado)
recorded endpoint: pKd

// known answers, use as guide
[
  {
    "binder": "ARESQKVSHV [FAM110B, Q8TC76]",
    "pKd": "below the threshold"
  },
  {
    "binder": "QSGLYESEEL [MYOT, Q9UBF9]",
    "pKd": 4.04
  },
  {
    "binder": "VLYPREGTEV [FOXI1, Q12951]",
    "pKd": 3.48
  },
  {
    "binder": "NISYRRESAI [KCNJ4, P48050]",
    "pKd": "below the threshold"
  },
  {
    "binder": "NTANRRTTPV [CACNG2, Q9Y698]",
    "pKd": "below the threshold"
  },
  {
    "binder": "QKAPTKEFYA [SDC2, P34741]",
    "pKd": "below the threshold"
  },
  {
    "binder": "EKCGKEFSEF [PRKACA, P17612]",
    "pKd": 4.18
  },
  {
    "binder": "SRSVVESDEL [MYPN, Q86TC9]",
    "pKd": 3.86
  },
  {
    "binder": "VKRNSKETVV [MARCHF3, Q86UD3]",
    "pKd": "below the threshold"
  },
  {
    "binder": "NTLNRKTTPV [CACNG8, Q8WXS5]",
    "pKd": "below the threshold"
  }
]

Recorded result, EPQYQPGENL [SRC, P12931] , pKd: 3.77

Recorded result, LPAVCYDIDI [PTTG2, Q9NZH5] , pKd: below the threshold

Recorded result, LKDDELKTKL [SLCO1A2, P46721] , pKd: 4.67
